- studySystem: T1, Formyl-Peptide Receptor 1 (UniProt P21462 1-350, limits assumed)
- T1 sequence (looked up): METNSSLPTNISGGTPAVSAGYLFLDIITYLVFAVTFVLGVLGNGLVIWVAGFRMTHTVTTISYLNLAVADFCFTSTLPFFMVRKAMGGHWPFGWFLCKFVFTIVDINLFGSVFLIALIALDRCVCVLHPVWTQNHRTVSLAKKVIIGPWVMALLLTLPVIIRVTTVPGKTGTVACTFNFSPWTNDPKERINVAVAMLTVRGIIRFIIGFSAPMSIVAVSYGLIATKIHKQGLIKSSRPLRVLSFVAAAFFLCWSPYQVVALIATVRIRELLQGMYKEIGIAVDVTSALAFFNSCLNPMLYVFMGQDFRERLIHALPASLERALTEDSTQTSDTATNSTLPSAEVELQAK
- measurementNotes: cell-based or functional assay
Bridges are numbered along the chain shown (N, C = ends). [ ]: non-standard residue; d: D form. Dab = NCC[C@H](N)C(=O)O
Lab note: compare β-Arrestin IC50 with 200 nM, writing met if less and not met if equal or more.

Consider the following illustrative entries.
- binder: "cyclo(YHKCWG[dP]WTICY[Dab]K[dP]P) (disulfide 4-11; SMILES CC[C@H](C)[C@@H]1NC(=O)[C@H]([C@@H](C)O)NC(=O)[C@H](Cc2c[nH]c3ccccc23)NC(=O)[C@H]2CCCN2C(=O)CNC(=O)[C@H](Cc2c[nH]c3ccccc23)NC(=O)[C@@H]2CSSC[C@H](NC1=O)C(=O)N[C@@H](Cc1ccc(O)cc1)C(=O)N[C@@H](CCN)C(=O)N[C@@H](CCCCN)C(=O)N1CCC[C@@H]1C(=O)N1CCC[C@H]1C(=O)N[C@@H](Cc1ccc(O)cc1)C(=O)N[C@@H](Cc1c[nH]cn1)C(=O)N[C@@H](CCCCN)C(=O)N2) [cyclo(-Tyr-His-Lys-Cys-Trp-Gly-^DPro-Trp-Thr-Ile-Cys-Tyr-Dab-Lys-^DPro-Pro-)]"
  assignedClass: "not met"
- binder: "cyclo(YHKCHG[dP]WTICYEK[dP][Dab]) (disulfide 4-11; SMILES CC[C@H](C)[C@@H]1NC(=O)[C@H]([C@@H](C)O)NC(=O)[C@H](Cc2c[nH]c3ccccc23)NC(=O)[C@H]2CCCN2C(=O)CNC(=O)[C@H](Cc2c[nH]cn2)NC(=O)[C@@H]2CSSC[C@H](NC1=O)C(=O)N[C@@H](Cc1ccc(O)cc1)C(=O)N[C@@H](CCC(=O)O)C(=O)N[C@@H](CCCCN)C(=O)N1CCC[C@@H]1C(=O)N[C@@H](CCN)C(=O)N[C@@H](Cc1ccc(O)cc1)C(=O)N[C@@H](Cc1c[nH]cn1)C(=O)N[C@@H](CCCCN)C(=O)N2) [cyclo(-Tyr-His-Lys-Cys-His-Gly-^DPro-Trp-Thr-Ile-Cys-Tyr-Glu-Lys-^DPro-Dab-)]"
  assignedClass: "met"
- binder: "cyclo(YHACHG[dP]WTICYTK[dP]P) (disulfide 4-11; SMILES CC[C@H](C)[C@@H]1NC(=O)[C@H]([C@@H](C)O)NC(=O)[C@H](Cc2c[nH]c3ccccc23)NC(=O)[C@H]2CCCN2C(=O)CNC(=O)[C@H](Cc2c[nH]cn2)NC(=O)[C@@H]2CSSC[C@H](NC1=O)C(=O)N[C@@H](Cc1ccc(O)cc1)C(=O)N[C@@H]([C@@H](C)O)C(=O)N[C@@H](CCCCN)C(=O)N1CCC[C@@H]1C(=O)N1CCC[C@H]1C(=O)N[C@@H](Cc1ccc(O)cc1)C(=O)N[C@@H](Cc1c[nH]cn1)C(=O)N[C@@H](C)C(=O)N2) [cyclo(-Tyr-His-Ala-Cys-His-Gly-^DPro-Trp-Thr-Ile-Cys-Tyr-Thr-Lys-^DPro-Pro-)]"
  assignedClass: "not met"
- binder: "cyclo(YHACWG[dP]WTICYEK[dP]P) (disulfide 4-11; SMILES CC[C@H](C)[C@@H]1NC(=O)[C@H]([C@@H](C)O)NC(=O)[C@H](Cc2c[nH]c3ccccc23)NC(=O)[C@H]2CCCN2C(=O)CNC(=O)[C@H](Cc2c[nH]c3ccccc23)NC(=O)[C@@H]2CSSC[C@H](NC1=O)C(=O)N[C@@H](Cc1ccc(O)cc1)C(=O)N[C@@H](CCC(=O)O)C(=O)N[C@@H](CCCCN)C(=O)N1CCC[C@@H]1C(=O)N1CCC[C@H]1C(=O)N[C@@H](Cc1ccc(O)cc1)C(=O)N[C@@H](Cc1c[nH]cn1)C(=O)N[C@@H](C)C(=O)N2) [cyclo(-Tyr-His-Ala-Cys-Trp-Gly-^DPro-Trp-Thr-Ile-Cys-Tyr-Glu-Lys-^DPro-Pro-)]"
  assignedClass: "met"

Decide: β-Arrestin IC50 of cyclo(YHKCHG[dP]WTICYEK[dP]E) (disulfide 4-11; SMILES CC[C@H](C)[C@@H]1NC(=O)[C@H]([C@@H](C)O)NC(=O)[C@H](Cc2c[nH]c3ccccc23)NC(=O)[C@H]2CCCN2C(=O)CNC(=O)[C@H](Cc2c[nH]cn2)NC(=O)[C@@H]2CSSC[C@H](NC1=O)C(=O)N[C@@H](Cc1ccc(O)cc1)C(=O)N[C@@H](CCC(=O)O)C(=O)N[C@@H](CCCCN)C(=O)N1CCC[C@@H]1C(=O)N[C@@H](CCC(=O)O)C(=O)N[C@@H](Cc1ccc(O)cc1)C(=O)N[C@@H](Cc1c[nH]cn1)C(=O)N[C@@H](CCCCN)C(=O)N2) [cyclo(-Tyr-His-Lys-Cys-His-Gly-^DPro-Trp-Thr-Ile-Cys-Tyr-Glu-Lys-^DPro-Glu-)] strictly below 200 nM?
met

Decide: β-Arrestin IC50 of cyclo(YHKCWG[dP]WTICYEK[dP]P) (disulfide 4-11; SMILES CC[C@H](C)[C@@H]1NC(=O)[C@H]([C@@H](C)O)NC(=O)[C@H](Cc2c[nH]c3ccccc23)NC(=O)[C@H]2CCCN2C(=O)CNC(=O)[C@H](Cc2c[nH]c3ccccc23)NC(=O)[C@@H]2CSSC[C@H](NC1=O)C(=O)N[C@@H](Cc1ccc(O)cc1)C(=O)N[C@@H](CCC(=O)O)C(=O)N[C@@H](CCCCN)C(=O)N1CCC[C@@H]1C(=O)N1CCC[C@H]1C(=O)N[C@@H](Cc1ccc(O)cc1)C(=O)N[C@@H](Cc1c[nH]cn1)C(=O)N[C@@H](CCCCN)C(=O)N2) [cyclo(-Tyr-His-Lys-Cys-Trp-Gly-^DPro-Trp-Thr-Ile-Cys-Tyr-Glu-Lys-^DPro-Pro-)] strictly below 200 nM?
met

Decide: β-Arrestin IC50 of cyclo(YHACHG[dP]WTICYWK[dP]P) (disulfide 4-11; SMILES CC[C@H](C)[C@@H]1NC(=O)[C@H]([C@@H](C)O)NC(=O)[C@H](Cc2c[nH]c3ccccc23)NC(=O)[C@H]2CCCN2C(=O)CNC(=O)[C@H](Cc2c[nH]cn2)NC(=O)[C@@H]2CSSC[C@H](NC1=O)C(=O)N[C@@H](Cc1ccc(O)cc1)C(=O)N[C@@H](Cc1c[nH]c3ccccc13)C(=O)N[C@@H](CCCCN)C(=O)N1CCC[C@@H]1C(=O)N1CCC[C@H]1C(=O)N[C@@H](Cc1ccc(O)cc1)C(=O)N[C@@H](Cc1c[nH]cn1)C(=O)N[C@@H](C)C(=O)N2) [cyclo(-Tyr-His-Ala-Cys-His-Gly-^DPro-Trp-Thr-Ile-Cys-Tyr-Trp-Lys-^DPro-Pro-)] strictly below 200 nM?
met
